- Experimental System: T1, PSMA Fab (006 PSMA Fab) (biotinylated (site not stated))
- T1 construct: Biotinylated PSMA Fab captured on neutravidin coated plates in the phage ELISA; also called Anti-PSMA Fab; anti-PSMA Fab
- Experiment: clonal phage supernatant on captured PSMA Fab pre-incubated with the competitor PSMA antigen, anti-M13-HRP detection
Where no end group is shown, it is not given here.
Catalogue of binders with associated Phage binding ELISA signal, Anti-PSMA Fab in presence of PSMA antigen
Outcome Measure: Phage binding ELISA signal, Anti-PSMA Fab in presence of PSMA antigen

| Binder | Result |
| --- | --- |
| EGRYCVPDWMCLGL (cysteine pairing not given here; also: displayed on phage as pIII fusion, not shown: pIII filament protein of the bacteriophage) [Phage-3710] | 0.0705 |
| MSMSCVPLWMCSGF (not shown: pIII filament protein of the bacteriophage) [Phage-3705] | 0.0698 |
| EVLLCKPSWMCDGF (not shown: pIII filament protein of the bacteriophage) [Phage-3701] | 0.185 |
| TDRVCTPAWMCQGL (not shown: pIII filament protein of the bacteriophage) [Phage-3708] | 0.0772 |
| EIPLCRPEWMCTGL (not shown: pIII filament protein of the bacteriophage) [Phage-3706] | 0.126 |
| LEGMCKPAWMCTGF (cysteine pairing not given here; also: displayed on phage as pIII fusion, not shown: pIII filament protein of the bacteriophage) [Phage-3713] | 0.0862 |
| VPRMCIPHWMCEGI (not shown: pIII filament protein of the bacteriophage) [Phage-3703] | 0.0731 |
| EHIRCQPSWMCWGF (cysteine pairing not given here; also: displayed on phage as pIII fusion, not shown: pIII filament protein of the bacteriophage) [Phage-3709] | 0.128 |
| VDHMCKPMWMCNGF (not shown: pIII filament protein of the bacteriophage) [Phage-3707] | 0.0673 |
| GDVRCVPSWMCEGY (not shown: pIII filament protein of the bacteriophage) [Phage-3704] | 0.0816 |
| GQAACVPSWMCSGF (cysteine pairing not given here; also: displayed on phage as pIII fusion, not shown: pIII filament protein of the bacteriophage) [Phage-3714] | 0.0867 |
| IAFRCVPEWMCSAF (cysteine pairing not given here; also: displayed on phage as pIII fusion, not shown: pIII filament protein of the bacteriophage) [Phage-3711] | 0.07 |
| EVWMCRPSWMCDGF (cysteine pairing not given here; also: displayed on phage as pIII fusion, not shown: pIII filament protein of the bacteriophage) [Phage-3712] | 0.0717 |
| PGALCVPFWMCQGF (not shown: pIII filament protein of the bacteriophage) [Phage-3702] | 0.108 |
